These entries and their values trace back to the supplement of paper PMC10567573.

B1: ANKRD40 (parent)
chain: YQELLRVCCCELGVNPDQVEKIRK

variants of: B1; assay: protein stability index of a GFP-peptide fusion (GPS, HEK-293T) (PSI 1-6); higher = more stable; details: c terminus: a fixed tail appended;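 further: lentivirally expressed fusions sorted by FACS into six bins by GFP to DsRed ratio, PSI derived from sequencing read proportions per bin multiplied by bin number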

mutant name	protein stability index
E20P	1.66
K21P	1
G13Q	1.57
I22D	2.25
R23G	1.56
Y1C	1.95
K21V	2.54
Q2R	2.58
Q18I	1.89
R6E	2.36
N15P	2.8
P16M	1.5
E3F	1.76
R23I	1.8
G13H	1.79
L5T	1.91
N15R	2.21
K24P	1.35
Q18C	1.52
E11I	1.49
C8S	3.33
E11L	2
Q2F	1.44
L5I	1.77
C9S	2.14
L12V	1.64
K21G	1.82
L12Y	2.24
R6G	2.23
C9R	2.31
R23W	1.72
D17R	2.04
C9Y	2.66
L12D	2.64
Q2W	1.67
V19G	1.64
L4E	3.05
K24E	1.62
Y1H	3.27
C9T	2.23
R23S	1.72
C8D	3.81
K21L	1.05
K24A	1.36
K24N	1.61
L12G	2.31
P16C	2.52
L4T	2.53
L12S	2.15
V14E	2.72
E20V	1.99
V14M	2.07
R23D	2.04
V14P	2.02
Q2N	2.52
C9W	2.23
V7D	2.53
G13N	1.78
V14Q	1.72
P16D	2.86
R23T	2.08
V14C	2.08
G13R	1.66
